Just for reference, patent US8808702B2 is where these values come from.

# Test system: K562 (chronic myelogenous leukaemia)
# test-protocol: Effect of compounds on tumor cell lines (assay of Latham et al.), K562
# Type: cell-based
# run-parameters: Table 4; K562 cells, examined 96 hours after treatment, 1 μM to 100 μM in DMSO; read-out: K 562 potency (IC50)
# Protocol: The effect of the compounds of the invention on tumor cells was determined by the assay described by Latham et al., Oncogene 12:827-837 (1996). Tumor cells K562 (chronic myelogenous leukaemia) or DU145 (prostate cancer) were plated in 12-well dishes at a cell density of 2.5×10^4 cells well. […] When necessary, the total number of viable cells was determined by trypsinizing the wells and counting the number of viable cells, as determined by trypan blue exclusion, using a hemacytometer. […]
Listed here: items and their measured IC50.

Known results for molecules:
CCN(CC)CCNC(=O)c1c(C)[nH]c(/C=C(\C(=O)c2ccc(Br)cc2)S(=O)(=O)Cc2ccc(Br)cc2)c1C 1 to 10 µM
O=C(/C(=C\c1ccc(O)c([N+](=O)[O-])c1)S(=O)(=O)Cc1ccc(Br)cc1)c1c(F)c(F)c(F)c(F)c1F 50 to 100 µM

Here's the next entry for you.
Record request: IC50 value, item O=C(/C(=C\c1ccc(O)c([N+](=O)[O-])c1)S(=O)(=O)Cc1ccc(Cl)cc1)c1ccc(Cl)cc1
25 to 50 µM
